- PROTOCOL: Critical micellar concentration of the compound
- Format: physicochemical
Where a SMILES comes first, the peptide text is derived from it. The star is where a group is joined. Stearoyl = CCCCCCCCCCCCCCCCCC(=O)*
OBSERVATION_TYPE: CMC (µM)
Respond with the bare value in µM.

1. CCCCCCCCCCCCCCCCCC(=O)N[C@@H](CC(=O)O)C(=O)N[C@@H](Cc1ccccc1)C(=O)N[C@@H](CCCNC(=N)N)C(=O)N[C@@H](CCCNC(=N)N)C(=O)N[C@@H](CC(C)C)C(=O)N1CCC[C@H]1C(=O)NCC(=O)N[C@@H](C)C(=O)N[C@@H](Cc1ccccc1)C(=O)N[C@@H](Cc1c[nH]c2ccccc12)C(=O)N[C@@H](CCC(N)=O)C(=O)N[C@@H](CC(C)C)C(=O)N[C@@H](CCCNC(=N)N)C(=O)N[C@@H](CCC(N)=O)C(=O)N1CCC[C@H]1C(N)=O (Stearoyl-DFRRLPGAFWQLRQP-NH2) | 0.8

CMC for CCCCCCCCCCCCCCCCCC(=O)NCC(=O)N[C@@H](C)C(=O)N[C@@H](Cc1c[nH]c2ccccc12)C(=O)N[C@@H](Cc1ccc(O)cc1)C(=O)N[C@@H](CCCCN)C(=O)NCC(=O)N[C@@H](CCCNC(=N)N)C(=O)N[C@@H](C)C(=O)N[C@@H](CCCNC(=N)N)C(=O)N1CCC[C@H]1C(=O)N[C@H](C(=O)N[C@@H](CO)C(=O)N[C@@H](C)C(=O)N[C@H](C(=O)N[C@@H](C)C(N)=O)C(C)C)C(C)C (Stearoyl-GAWYKGRARPVSAVA-NH2) is 0.8

----------
- PROTOCOL: Binding affinity to ganglioside 6'GM3 by quartz crystal microbalance method
- MEASUREMENT_PARAMETERS: read-out: Kd
Recorded pKd values for a group of substances are listed next.
Reminder that pKd means the negative base-10 logarithm of the concentration expressed in mol/L.

1. H-RAVWRHSVATPSHSV-OH | 5.70

Looking up H-GWWYKGRARPVSAVA-OH , I found its pKd recorded as 5.82

----------
- PROTOCOL: Binding affinity to ganglioside GlcCer by quartz crystal microbalance method
- MEASUREMENT_PARAMETERS: read-out: Kd
OBSERVATION_TYPE: Kd

1) H-RAVWRHSVATPSHSV-OH | > 70 µM

Record H-GWWYKGRARPVSAVA-OH , field Kd: > 70 µM

----------
- System: Influenza A virus
- PROTOCOL: Antiviral activity against Influenza A virus (A/Puerto Rico/8/34(H1N1)) infected in MDCK cells after 30 mins by crystal violet-based plaque assay
- Type: functional, organism-based
- MEASUREMENT_PARAMETERS: A/Puerto Rico/8/1934(H1N1), 0.5 h
Where a SMILES comes first, the peptide text is derived from it. The star is where a group is joined. Stearoyl = CCCCCCCCCCCCCCCCCC(=O)*
Consider the following compounds and their measured log10 of IC50 readings.
For clarity, the numbers are log10 values of IC50 expressed in µM.

Known log10 of IC50 results, listed for orientation:
1. CCCCCCCCCCCCCCCCCC(=O)NCC(=O)N[C@@H](Cc1c[nH]c2ccccc12)C(=O)N[C@@H](Cc1c[nH]c2ccccc12)C(=O)N[C@@H](Cc1ccc(O)cc1)C(=O)N[C@@H](CCCCN)C(=O)NCC(=O)N[C@@H](CCCNC(=N)N)C(=O)N[C@@H](C)C(=O)N[C@@H](CCCNC(=N)N)C(=O)N[C@@H](C)C(=O)N[C@H](C(=O)N[C@@H](CO)C(=O)N[C@@H](C)C(=O)N[C@H](C(=O)N[C@@H](C)C(N)=O)C(C)C)C(C)C (Stearoyl-GWWYKGRARAVSAVA-NH2) | 1.95
2. CCCCCCCCCCCCCCCCCC(=O)NCC(=O)N[C@@H](C)C(=O)N[C@@H](Cc1c[nH]c2ccccc12)C(=O)N[C@@H](Cc1ccc(O)cc1)C(=O)N[C@@H](CCCCN)C(=O)NCC(=O)N[C@@H](CCCNC(=N)N)C(=O)N[C@@H](C)C(=O)N[C@@H](CCCNC(=N)N)C(=O)N1CCC[C@H]1C(=O)N[C@H](C(=O)N[C@@H](CO)C(=O)N[C@@H](C)C(=O)N[C@H](C(=O)N[C@@H](C)C(N)=O)C(C)C)C(C)C (Stearoyl-GAWYKGRARPVSAVA-NH2) | 1.72
3. CCCCCCCCCCCCCCCCCC(=O)N[C@@H](C)C(=O)N[C@H](C(=O)N[C@@H](C)C(=O)N[C@@H](CO)C(=O)N[C@H](C(=O)N1CCC[C@H]1C(=O)N[C@@H](CCCNC(=N)N)C(=O)N[C@@H](C)C(=O)N[C@@H](CCCNC(=N)N)C(=O)NCC(=O)N[C@@H](CCCCN)C(=O)N[C@@H](Cc1ccc(O)cc1)C(=O)N[C@@H](Cc1c[nH]c2ccccc12)C(=O)N[C@@H](Cc1c[nH]c2ccccc12)C(=O)NCC(N)=O)C(C)C)C(C)C (Stearoyl-AVASVPRARGKYWWG-NH2) | 1.64

Lookup result for CCCCCCCCCCCCCCCCCC(=O)N[C@@H](CC(=O)O)C(=O)N[C@@H](Cc1ccccc1)C(=O)N[C@@H](CCCNC(=N)N)C(=O)N[C@@H](CCCNC(=N)N)C(=O)N[C@@H](CC(C)C)C(=O)N1CCC[C@H]1C(=O)NCC(=O)N[C@@H](C)C(=O)N[C@@H](Cc1ccccc1)C(=O)N[C@@H](Cc1c[nH]c2ccccc12)C(=O)N[C@@H](CCC(N)=O)C(=O)N[C@@H](CC(C)C)C(=O)N[C@@H](CCCNC(=N)N)C(=O)N[C@@H](CCC(N)=O)C(=O)N1CCC[C@H]1C(N)=O (Stearoyl-DFRRLPGAFWQLRQP-NH2) ; measured log10 of IC50: 1.72

Per the record, CCCCCCCCCCCCCCCCCC(=O)N[C@@H](C)C(=O)N[C@@H](CCC(=O)O)C(=O)N[C@H](C(=O)N[C@H](C(=O)N[C@@H](CCC(=O)O)C(=O)N[C@@H](CO)C(=O)N[C@@H](CS)C(=O)N[C@@H](CC(C)C)C(=O)N[C@@H](C)C(=O)N[C@@H](CCCCN)C(=O)N1CCC[C@H]1C(=O)N[C@@H](Cc1cnc[nH]1)C(=O)N[C@H](C(=O)N[C@@H](CCC(=O)O)C(=O)N[C@@H](CC(N)=O)C(N)=O)[C@H](C)O)C(C)C)[C@@H](C)O has log10 of IC50 of 1.82

Looking up CCCCCCCCCCCCCCCCCC(=O)N[C@@H](CCCNC(=N)N)C(=O)N[C@@H](C)C(=O)N[C@H](C(=O)N[C@@H](Cc1c[nH]c2ccccc12)C(=O)N[C@@H](CCCNC(=N)N)C(=O)N[C@@H](Cc1cnc[nH]1)C(=O)N[C@@H](CO)C(=O)N[C@H](C(=O)N[C@@H](C)C(=O)N[C@H](C(=O)N1CCC[C@H]1C(=O)N[C@@H](CO)C(=O)N[C@@H](Cc1cnc[nH]1)C(=O)N[C@@H](CO)C(=O)N[C@H](C(N)=O)C(C)C)[C@@H](C)O)C(C)C)C(C)C (Stearoyl-RAVWRHSVATPSHSV-NH2) , I see its log10 of IC50 listed as 0.81

// log10 of IC50 value for CCCCCCCCCCCCCCCCCC(=O)NCC(=O)N[C@@H](Cc1c[nH]c2ccccc12)C(=O)N[C@@H](Cc1c[nH]c2ccccc12)C(=O)N[C@@H](Cc1ccc(O)cc1)C(=O)N[C@@H](CCCCN)C(=O)NCC(=O)N[C@@H](CCCNC(=N)N)C(=O)N[C@@H](C)C(=O)N[C@@H](CCCNC(=N)N)C(=O)N1CCC[C@H]1C(=O)N[C@H](C(=O)N[C@@H](CO)C(=O)N[C@@H](C)C(=O)N[C@H](C(=O)N[C@@H](C)C(N)=O)C(C)C)C(C)C (Stearoyl-GWWYKGRARPVSAVA-NH2) : 0.51

----------
- PROTOCOL: Binding affinity to ganglioside GM3 by quartz crystal microbalance method
- MEASUREMENT_PARAMETERS: read-out: Kd
OBSERVATION_TYPE: pKd
Remember the convention: pKd equals -log10 of concentration in molar.

1) H-RAVWRHSVATPSHSV-OH | 6.39

Now take the following substance into account.
pKd for H-GWWYKGRARPVSAVA-OH is 5.82

----------
- PROTOCOL: Binding affinity to ganglioside GM3 by ELISA relative to wild type fd phage clone
OBSERVATION_TYPE: fold change (FC)
Please give the numeric answer without any surrounding text.

Item: H-GWWYKGRARPVSAVA-OH | fold change (FC): 2.1

In plain terms, H-RAVWRHSVATPSHSV-OH has a documented fold change (FC) of 1.5

Documented fold change (FC) of H-WRGVYFGDRWLGSQP-OH : 1.6

Values were extracted from ChEMBL document CHEMBL1151941.
